# SYSTEM TESTED: human ether-à-go-go-related gene (hERG) potassium channel (human, UniProt Q12809)
# Sequence (Q12809 whole entry, looked up): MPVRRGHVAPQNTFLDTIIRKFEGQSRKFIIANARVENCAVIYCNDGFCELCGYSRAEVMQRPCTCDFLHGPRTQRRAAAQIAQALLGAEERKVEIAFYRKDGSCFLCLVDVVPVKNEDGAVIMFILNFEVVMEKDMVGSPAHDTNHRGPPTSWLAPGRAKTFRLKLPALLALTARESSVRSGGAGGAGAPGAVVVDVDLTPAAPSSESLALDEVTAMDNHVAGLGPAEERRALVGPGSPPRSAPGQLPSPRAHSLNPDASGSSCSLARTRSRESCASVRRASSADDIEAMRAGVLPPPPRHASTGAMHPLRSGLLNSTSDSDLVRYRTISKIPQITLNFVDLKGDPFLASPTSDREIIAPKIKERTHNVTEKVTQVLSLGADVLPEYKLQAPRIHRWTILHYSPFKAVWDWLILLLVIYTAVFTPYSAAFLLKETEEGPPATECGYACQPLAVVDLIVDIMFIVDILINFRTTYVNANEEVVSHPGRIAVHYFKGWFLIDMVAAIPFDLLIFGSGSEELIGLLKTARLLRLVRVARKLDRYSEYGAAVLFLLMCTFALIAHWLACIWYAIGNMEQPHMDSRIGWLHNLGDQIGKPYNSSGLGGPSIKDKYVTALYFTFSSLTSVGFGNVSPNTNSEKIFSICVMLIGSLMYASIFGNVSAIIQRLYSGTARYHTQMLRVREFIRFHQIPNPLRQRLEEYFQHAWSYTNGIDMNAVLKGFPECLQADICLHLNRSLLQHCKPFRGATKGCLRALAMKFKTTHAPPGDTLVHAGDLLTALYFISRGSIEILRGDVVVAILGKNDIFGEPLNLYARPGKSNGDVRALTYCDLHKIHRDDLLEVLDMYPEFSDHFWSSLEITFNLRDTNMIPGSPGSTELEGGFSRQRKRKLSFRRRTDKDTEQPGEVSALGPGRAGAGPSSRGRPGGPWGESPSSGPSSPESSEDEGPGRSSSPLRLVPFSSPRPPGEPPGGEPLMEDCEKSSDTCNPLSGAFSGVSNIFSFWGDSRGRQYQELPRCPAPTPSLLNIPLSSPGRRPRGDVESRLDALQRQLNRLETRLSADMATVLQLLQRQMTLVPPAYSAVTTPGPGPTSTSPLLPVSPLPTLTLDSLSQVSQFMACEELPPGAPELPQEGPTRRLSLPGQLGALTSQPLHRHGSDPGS
# RUN DESCRIPTION: primary screen, population patch clamp on CHO cells stably expressing hERG; higher = less effect of the substance
Out of some 310,000 compounds screened, about 2,200 (0.71%) showed an effect of 50% or more. Effects have a minus sign here. The entries come from a sample that favours strong results as a whole.
MEASURED METRIC: hERG current change (%, negative = inhibition) at 1uM (%)

| SMILES TEXT | VALUE UNIT | RECORDED VALUE |
| --- | --- | --- |
| COC(=O)c1cc2c(=O)n3ccccc3nc2n(Cc2cccnc2)c1=N | % | -51.5 |
| N=c1c(C(=O)NCc2ccc(F)cc2)cc2c(=O)n3ccccc3nc2n1Cc1cccnc1 | % | -80.3 |
| COc1ccc(CNC(=O)c2cc3c(=O)n4ccccc4nc3n(Cc3cccnc3)c2=N)cc1 | % | -32.6 |
| CCOC(=O)c1cc2c(=O)n3ccccc3nc2n(Cc2ccccc2)c1=N | % | -68.9 |

---

# SYSTEM TESTED: human ether-à-go-go-related gene (hERG) potassium channel (human)
# RUN DESCRIPTION: primary screen, population patch clamp on CHO cells stably expressing hERG; higher = less effect of the substance
The campaign covered roughly 310,000 compounds. About 2,200 (0.71%) showed an effect of 50% or more. The effect is printed as a negative number. The sample as a whole holds a higher share of strong results than the screen did.
Known hERG current change (%, negative = inhibition) at 1uM of a selection of molecules
MEASURED METRIC: hERG current change (%, negative = inhibition) at 1uM (%)

| MOLECULE | RECORDED VALUE |
| --- | --- |
| CCSc1ccccc1C(=O)N1CCN(c2ccc([N+](=O)[O-])cc2)CC1 | -41 |
| N#Cc1c(N)n(CCOC(=O)c2cccc([N+](=O)[O-])c2)c2nc3ccccc3nc12 | 13.1 |
| COc1ccc(NC(=O)c2cc3c(=O)n4ccccc4nc3n2C)cc1OC | 11.4 |
| COc1ccc(CC(=O)Oc2cc(C)[nH]c(=O)c2[N+](=O)[O-])cc1 | 4.19 |
| Cc1cccc(NC(=O)c2c(C)nc3ccccn23)c1 | 3.98 |
| CCCOc1ccc(C2c3c(oc4cc(C)c(C)cc4c3=O)C(=O)N2CCCN2CCOCC2)cc1 (stereo not drawn) | 7.1 |

---

Known hERG current change (%, negative = inhibition) at 1uM of a selection of compounds
# SYSTEM TESTED: human ether-à-go-go-related gene (hERG) potassium channel (human, UniProt Q12809)
# RUN DESCRIPTION: primary screen, population patch clamp on CHO cells stably expressing hERG; higher = less effect of the substance
The whole screen tested about 310,000 compounds, of which about 2,200 (0.71%) showed an effect of 50% or more. The effect is printed as a negative number. This is one part of a sample in which strong results are shown more often than they occur.
MEASURED METRIC: hERG current change (%, negative = inhibition) at 1uM (%)

| COMPOUND | VALUE UNIT | RECORDED VALUE |
| --- | --- | --- |
| COc1cccc2c1OCC(CN1CCN(Cc3ccccc3F)C(CCO)C1)=C2 (stereo not drawn) | % | 12 |
| CCOc1ccc(CN2CCN(CC3=Cc4cccc(OC)c4OC3)CC2CCO)cc1 (stereo not drawn) | % | -71.4 |
| Clc1cccc(OCCCCN2CCCCC2)c1 | % | -4.66 |
| COc1cccc2c1OCC(CN1CCN(Cc3ccccc3)C(CCO)C1)=C2 (stereo not drawn) | % | -4.17 |
| Cc1ccc(CN2CCN(Cc3cccc4c3OCO4)CC2CCO)cc1 (stereo not drawn) | % | -16.1 |
| CCCOc1ccc(C2C(C(=O)c3ccc(C)o3)=C(O)C(=O)N2Cc2ccco2)cc1OCC (stereo not drawn) | % | 14.9 |

---

# SYSTEM TESTED: human ether-à-go-go-related gene (hERG) potassium channel (human, UniProt Q12809)
# RUN DESCRIPTION: primary screen, population patch clamp on CHO cells stably expressing hERG; higher = less effect of the substance
The campaign covered roughly 310,000 compounds. About 2,200 (0.71%) showed an effect of 50% or more. The effect is printed as a negative number. The sample holds strong results, similar compounds and a random draw of the others, so the mix is not that of the screen.
Assign criterion met whenever hERG current change (%, negative = inhibition) at 1uM does not fall below -50%; assign criterion not met whenever it does.

| SMILES TEXT | SYSTEM TESTED | ASSIGNED CLASS |
| --- | --- | --- |
| O=C1CC2(CCN(C(=O)COc3ccc(Cl)cc3)CC2)Oc2ccccc21 | human ether-à-go-go-related gene (hERG) potassium channel (human, UniProt Q12809) | criterion not met |
| COc1ccc(OCC(=O)N2CCC3(CC2)CC(=O)c2ccccc2O3)cc1 | human ether-à-go-go-related gene (hERG) potassium channel (human, UniProt Q12809) | criterion not met |
| O=C1CC2(CCN(C(=O)COc3ccc(F)cc3)CC2)Oc2ccccc21 | human ether-à-go-go-related gene (hERG) potassium channel (human, UniProt Q12809) | criterion met |
| CC(=O)N1CCN(C(=O)COc2ccc(Br)cc2)CC1 | human ether-à-go-go-related gene (hERG) potassium channel (human, UniProt Q12809) | criterion met |
| N#Cc1ccc(C2=CC(=O)C[C@H](c3ccc(Cl)cc3)C2)cc1 | human ether-à-go-go-related gene (hERG) potassium channel (human, UniProt Q12809) | criterion not met |
| O=C1CC2(CCN(C(=O)COc3ccccc3)CC2)Oc2ccccc21 | human ether-à-go-go-related gene (hERG) potassium channel (human, UniProt Q12809) | criterion met |
| COc1cccc(OCC(=O)N2CCC3(CC2)CC(=O)c2ccccc2O3)c1 | human ether-à-go-go-related gene (hERG) potassium channel (human, UniProt Q12809) | criterion met |

---

Known hERG current change (%, negative = inhibition) at 1uM of a selection of compounds
# SYSTEM TESTED: human ether-à-go-go-related gene (hERG) potassium channel (human)
# RUN DESCRIPTION: primary screen, population patch clamp on CHO cells stably expressing hERG; higher = less effect of the substance
Hit rate of the full screen: of about 310,000 compounds, about 2,200 (0.71%) showed an effect of 50% or more. Effects have a minus sign here. For the sample, strong results were picked, then their nearest neighbours and some compounds at random.
MEASURED METRIC: hERG current change (%, negative = inhibition) at 1uM (%)

| COMPOUND | RECORDED VALUE |
| --- | --- |
| O=C(CCN1CCN(S(=O)(=O)c2ccc(Cl)cc2)CC1)Nc1ccccc1F | 4.11 |
| O=C(CCN1CCN(c2ccccc2F)CC1)Nc1ccccc1Cl | 7.43 |
| O=C(Nc1ccc(F)cc1)N1CCN(CCc2ccccc2)CC1 | -9.52 |
| Cc1nnc2ccc(-c3cccc(NC(=O)c4ccco4)c3)nn12 | 1.54 |
| O=C(CN1CCN(CCC(=O)Nc2ccccc2F)CC1)Nc1ccc(Cl)cc1 | -84.3 |
| COc1ccc(CCNC(=O)/C=C/c2ccco2)cc1OC | 5.95 |
| Cc1c(C(=O)OCC(=O)N2c3ccccc3CC2C)oc2ccccc12 (stereo not drawn) | 14.6 |
| O=C(CCSc1ccccc1)OCn1nnc2ccccc2c1=O | 13.7 |
| Cc1nnc2ccc(-c3cccc(NC(=O)c4ccc(Br)o4)c3)nn12 | -52.2 |
| CCN(CC)CCNCC(O)(c1ccc(Cl)cc1)c1ccc(Cl)cc1 | -84.4 |
| Br.N=C1c2ccccc2CN1c1ccc(N2CCOCC2)c(S(=O)(=O)Nc2ccc(Cl)cc2)c1 | -89.2 |
| c1nc(NCC2(N3CCOCC3)CCCCC2)c2ccsc2n1 | -54.5 |
| O=C(CCN1CCN(c2ccccc2F)CC1)Nc1ccc(F)cc1 | 14.4 |
| COc1cc(/C=N/NC(=O)c2ccc(N(C)S(=O)(=O)c3ccccc3)cc2)cc(OC)c1OC | 10.6 |
| O=C(COc1ccc2ccc(=O)oc2c1)Nc1nccs1 | 2.46 |
| FC(F)(F)c1ccc(-c2n[nH]c(=S)o2)nc1 | 9.8 |
| Cc1ccc2nc3c(cc(C(=O)NC4CCCCC4)c(=N)n3C3CCCCC3)c(=O)n2c1 | -72.7 |
| Cc1cc(C)nc(-n2nc(C)cc2NC(=O)CN2CCc3ccccc3C2)n1 | -26.4 |
| Cc1nnc2ccc(-c3cccc(NC(=O)c4ccc(Cl)nc4)c3)nn12 | -1.98 |
| O=C(CCN1CCN(CC(=O)Nc2ccccc2Cl)CC1)Nc1ccccc1F | -54 |
| CCC(=O)Nc1ccc(N2CCOCC2)c(S(=O)(=O)Nc2ccc(Cl)cc2)c1 | 11.9 |
| CCOc1ccc(S(=O)(=O)N2CCC(C(=O)N3CCN(c4ccccc4F)CC3)CC2)cc1C | -1.32 |
| Cc1c(C(=O)N(CCc2ccccc2)Cc2ccccc2)cccc1[N+](=O)[O-] | 12.7 |
| CCN(CC)C(=O)C1CCN(S(=O)(=O)c2ccc3oc4ccccc4c3c2)CC1 | 16.7 |
| O=C(N/C(=C/c1cccnc1)C(=O)N1CCCCCC1)c1ccccc1 | 6.71 |
| CN1CC(=O)Nc2ccc([N+](=O)[O-])cc2C1=O | 17.6 |
| Cc1cccc(N(CC(O)CN2CCCC2)S(=O)(=O)c2ccccc2)c1 (stereo not drawn) | -35.3 |
| O=C(CN1CCN(CCC(=O)Nc2ccccc2F)CC1)Nc1ccc(F)cc1 | -78.3 |
| CCNC(=O)N1CCN(CCCC(c2ccc(F)cc2)c2ccc(F)cc2)CC1.Cl | -90.3 |
| O=C(CCN1CCN(c2ccc(F)cc2)CC1)Nc1ccccc1F | -9.21 |
| Cc1nn(CC(=O)Nc2c(C)n(C)n(-c3ccccc3)c2=O)c(C)c1[N+](=O)[O-] | 8.99 |
| O=S(=O)(NCc1cccnc1)c1ccc(Br)c2ccccc12 | 7.97 |
| Cc1ccc(S(=O)(=O)c2cc3c(=O)n4ccccc4nc3n(C3CCCC3)c2=N)cc1 | 3.8 |
| COc1ccccc1C(=O)NNC(=O)C12CC3CC(CC(C3)C1)C2 | 12.4 |
| Fc1cccc(CCN2CCNC[C@@H]2CC2CCCCC2)c1 | 1.12 |
| Cc1ccc(S(=O)(=O)N(CCC(=O)O)c2ccccc2)cc1 | 4.11 |
